# reported protein stability index; entries follow
B1: BTBD10 (parent)
chain: DRKLHSRPRKLYKHSSTSSRIAKG

Variants of: B1
Test: protein stability index of a GFP-peptide fusion (GPS, HEK-293T) (PSI 1-6); higher = more stable;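 also: lentivirally expressed fusions sorted by FACS into six bins by GFP to DsRed ratio, PSI derived from sequencing read proportions per bin multiplied by bin number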
Details: c terminus: a fixed tail appended
# answer = number (no unit)

protein stability index for K10E ? 2.8

protein stability index for Y12M ? 3.11

protein stability index for K10W ? 3.33

protein stability index for H14N ? 4.43

---
protein stability index for D1W ? 2.8
